biological target: human orexin 2 receptor (Homo sapiens (Human), UniProt O43614)
Sequence (O43614 whole entry): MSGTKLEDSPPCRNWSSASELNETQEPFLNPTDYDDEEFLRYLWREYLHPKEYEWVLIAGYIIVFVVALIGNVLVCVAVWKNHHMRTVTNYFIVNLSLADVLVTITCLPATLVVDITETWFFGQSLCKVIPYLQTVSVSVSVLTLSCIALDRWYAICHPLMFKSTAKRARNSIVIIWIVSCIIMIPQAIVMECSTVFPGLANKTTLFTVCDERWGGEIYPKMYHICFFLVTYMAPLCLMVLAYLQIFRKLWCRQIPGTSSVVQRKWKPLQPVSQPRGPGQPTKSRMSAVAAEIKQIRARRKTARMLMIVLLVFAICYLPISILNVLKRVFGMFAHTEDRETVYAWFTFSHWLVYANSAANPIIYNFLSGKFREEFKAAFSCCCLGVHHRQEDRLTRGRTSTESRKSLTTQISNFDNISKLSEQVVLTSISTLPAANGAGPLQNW
measured_quantity: Ki (nM)

Cc1cc(C)nc(N2CC3CN(C(=O)c4c(F)cccc4-c4ncco4)CC3C2)n1 (stereo not drawn) = 16
Cc1nc(N(C)C)cc(N2CC3CN(C(=O)c4ccc(F)cc4-n4nccn4)CC3C2)n1 (stereo not drawn) = 62
CCOc1ccc(C)nc1C(=O)N1CC2CN(c3nc(C)cc(C)n3)CC2C1 (stereo not drawn) = 897
COc1ccc(-n2nccn2)c(C(=O)N2CC3CN(c4cc(N(C)C)nc(C)n4)CC3C2)c1 (stereo not drawn) = 182
Cc1cc(C)nc(N2CC3CN(C(=O)c4cc(F)ccc4-c4cscn4)CC3C2)n1 (stereo not drawn) = 180

[a] COc1cnc(C(=O)N2CC3CN(c4nc(C)c(C)c(C)n4)CC3C2)c(-n2nccn2)c1 (stereo not drawn)
[b] COc1ccnc(-c2cccc(F)c2C(=O)N2CC3CN(c4nc(C)cc(C)n4)CC3C2)n1 (stereo not drawn)
[c] O=C(c1cccc(F)c1-c1cncs1)N1CC2CN(c3cnc4cc(F)c(F)cc4n3)CC2C1 (stereo not drawn)
Request: Please put the entries in order of rising Ki. Your answer should be the labels, listed in the requested order.
Response: b, a, c
